B1: OR4K15 (parent)
chain: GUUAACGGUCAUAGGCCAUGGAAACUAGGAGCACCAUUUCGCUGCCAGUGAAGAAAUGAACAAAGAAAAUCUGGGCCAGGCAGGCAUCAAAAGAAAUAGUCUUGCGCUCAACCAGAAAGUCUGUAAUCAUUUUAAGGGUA

variants of: B1; test: self-cleavage, relative activity (ratio to wild type); higher = more cleavage; in vitro, sequencing; the parent is a self-cleaving ribozyme
Where self-cleavage equals or exceeds 1, the correct label is T; where it does not, the label is F.

Solved cases below.
{"sequence_string": "GUUAACGGUCAUAGGCCAUGGAAACUAGGAGCACCAUUUCGCUGCCAGUGAAGAAAUGAACAAAGAACAUCUGGGCCAGGCAGGCAUCAAAAGAAAUAGUCUUGCGCUCAACCAGAAGGUCUGUAAUCAUUUUAAGGGUA [A68C A118G]", "group": "T"}
{"sequence_string": "GUUAACGGUCAUAGGCCAUGGAAACUAGGAGCACCAUUUCGCUGCCAGUGAAGAAAUGAACAAAGAAAAUCUGGGCCAGGCAGGCCUCAAAAGAAAUAGUCUUGCGCUCAACCAGAAAGUCUGUAAUCAUUUUAAGGGUA [A86C]", "group": "T"}
{"sequence_string": "GCUAACGGUCAUAGGCCAUGGAAACUAGGAGCACCAUUUCGCUGCCAGUGAAGAAAUGAACAAAGAAAAUCUGGGCCAGGCAGGCAUCAAAAGAAAUAGUCUUGCGCUCAACCAGAUAGUCUGUAAUCAUUUUAAGGGUA [U2C A117U]", "group": "T"}
{"sequence_string": "GUUAACGGUCAUAGGCCAUGGAAACUAGGAGCACCAUUUCGCUGCCAGUGAAGAAAUGAACAAAGAAAAUCUGGGCCAGGCAGGCAUCAAUAGAAAUAGACUUGCGCUCAACCAGAAAGUCUGUAAUCAUUUUAAGGGUA [A91U U100A]", "group": "F"}
{"sequence_string": "GUUAACGGUCAUAGGCCAAGGAAACUAGGAGCACCAUUUCGCUGCCAGUGAAGAAAUGAACAAAGAAAAUCUGGGCCAGGCAGGCACCAAAAGAAAUAGUCUUGCGCUCAACCAGAAAGUCUGUAAUCAUUUUAAGGGUA [U19A U87C]", "group": "F"}

## Task Quick check, self-cleavage >= 1? GUUAACGGACAUAGGCCAUGGAAACUAGGAGCACCAUUUCGCUGCCAGUGAAGAAAUGAACAAAGAAAAUCUGGGCAAGGCAGGCAUCAAAAGAAAUAGUCUUGCGCUCAACCAGAAAGUCUGUAAUCAUUUUAAGGGUA [U9A C77A]
## Result F

## Task Quick check, self-cleavage >= 1? GUUAACGGUCAUUGGCCAUGGAAACUAGGAGCACCAUUUCGCUGCCAGUGAAGAAAUGAACAAAGAAAAUCUGGGCCAGGCAGGCAUCAAAAGGAAUAGUCUUGCGCUCAACCAGAAAGUCUGUAAUCAUUUUAAGGGUA [A13U A94G]
## Result F

## Task Quick check, self-cleavage >= 1? GUUAACGGUCAUAGGCCAUGGAAACUAGGAGCACCAUUUCGCUGCCAGUGAAGAAAUGAACAAAGAAAAUCUGGGCCAGGCUGGCAUCAAAAGAAAUAGUCUUGCGCUCAACCAGAAAGUCUGUAAUCAUUUUAAGGGUA [A82U]
## Result F

## Task Quick check, self-cleavage >= 1? GUUAGCGGUCAUAGGCCAUGGAAACUAGGAGCACCAUUUCGCUGCCAGUGAAGAAAUGAACAAAGAAAAUCUGGGCCAGGCAGGCAUCAAAAGAAAUAGUCUUGCGCUCAACCAGAAAGUCUGUAGUCAUUUUAAGGGUA [A5G A126G]
## Result F

## Task Quick check, self-cleavage >= 1? GUUAACGGUCAUAGGCCAUGGAAACUAGGAGCACCAUUUCGCUGCCAGUGAAGAAAUGAACAAAGAAAAGCUGGGCCAGGCAGGCAUCAAAAGAAAUAGUCUUGCGCUCAACCAGAAAGUCUGUAAUCAUUUUAAGGGUA [U70G]
## Result F
